Measured viability at 28.5 h, 10 µM of individual entries
# Assay details: in vitro
# Run conditions: human, hela cells, % viability
Report the figure in % without appending any unit label.

Worked examples follow.
- Compound: "Cn1nccc1C(=O)N1CCCC(c2cc3ncccc3[nH]2)C1 (stereo not drawn) [CBK283413]"
  viability at 28.5 h, 10 µM, %: 104
- Compound: "CC(C)Nc1cncc(OCCN2CCOCC2)n1 [CBK115599]"
  viability at 28.5 h, 10 µM, %: 109
- Compound: "Cc1nnc(CCn2cnc3cccnc3c2=O)s1 [CBK307125]"
  viability at 28.5 h, 10 µM, %: 96.7

Could you now consider this next compound?
stdin: Input Cn1ccnc1Sc1nc2ccccc2nc1N1CCCC1 [CBK093791] , output reported viability at 28.5 h, 10 µM.
stdout: 92.4

* * *

Measured viability at 28.5 h, 10 µM of individual entries
# Assay details: in vitro
# Run conditions: human, hela cells, % viability
Report the figure in % without appending any unit label.

- Compound: "Nc1ncc(-c2cncnc2)nc1NC1CC1"
  Measure: "viability at 28.5 h, 10 µM"
  Unit text: "%"
  Recorded number: 101

stdin: Input CC1(C)Cc2c(sc(NC(=O)C3CC(Cl)=CCC3C(=O)O)c2C#N)CO1 (stereo not drawn) , output reported viability at 28.5 h, 10 µM.
stdout: 97.6

stdin: Input `COc1ccc(C(C)=O)cc1Cc1c(O)nc(SC)nc1O` , output reported viability at 28.5 h, 10 µM.
stdout: 93.9

stdin: Input `CCn1c(=O)n(CC(=O)Nc2ccccc2F)c2cccnc21` , output reported viability at 28.5 h, 10 µM.
stdout: 102

stdin: Input `Cc1ccc(C)c(OCC(=O)N(Cc2nc(-c3ccccc3)no2)C2CCCCC2)c1` , output reported viability at 28.5 h, 10 µM.
stdout: 89.4

stdin: Input `Cc1cc(NC(=O)CS(=O)(=O)c2cccc(C(F)(F)F)c2)on1` , output reported viability at 28.5 h, 10 µM.
stdout: 85.5

stdin: Input `Cc1cn2c(=O)c3ncn([C@H]4C[C@@H](O)[C@@H](CO)O4)c3nc2[nH]1` , output reported viability at 28.5 h, 10 µM.
stdout: 86.6

stdin: Input Cc1ncc(CN2CCCC(Cc3nc4ccccc4[nH]3)C2)s1 (stereo not drawn) , output reported viability at 28.5 h, 10 µM.
stdout: 99.7

stdin: Input `Cc1cc(NS(=O)(=O)c2ccccc2Br)n(C)n1` , output reported viability at 28.5 h, 10 µM.
stdout: 102

* * *

# Assay details: in vitro
# Run conditions: human, hela cells, % viability
Measured viability at 28.5 h, 10 µM of individual entries
Report the figure in % without appending any unit label.

- Compound: "CCC1(C)CC(=O)c2cc(NC(=O)N3CCc4n[nH]cc4C3)ccc2O1 (centres unmarked)"
  viability at 28.5 h, 10 µM (%): 90.3
- Compound: "CC1(C)NC(=O)N(CC(O)Cn2c3ccccc3c3ccccc32)C1=O (centres unmarked)"
  viability at 28.5 h, 10 µM (%): 86.8
- Compound: "Cc1ccccc1NS(=O)(=O)c1cc(OCC(N)=O)c(C)cc1Cl"
  viability at 28.5 h, 10 µM (%): 85.9
- Compound: "COc1cc(C(C)=O)ccc1OCC(O)Cn1c(=O)n(-c2ccccc2)c(=O)c2ccccc21 (centres unmarked)"
  viability at 28.5 h, 10 µM (%): 94.4
- Compound: "COc1ccc(-c2cnc(N)c(N3CCC[C@@H]3CO)n2)c(OC)c1OC"
  viability at 28.5 h, 10 µM (%): 98.5
- Compound: "CC(=O)N(C)Cc1cccc(Nc2ncnc3c2cnn3C)c1"
  viability at 28.5 h, 10 µM (%): 95.3
- Compound: "O=[N+]([O-])c1ccc(CNCCc2c[nH]c3ccccc23)cc1"
  viability at 28.5 h, 10 µM (%): 80.4
- Compound: "COc1cnc(/C=C\\c2ccccc2)c(NC(=O)c2ccco2)n1"
  viability at 28.5 h, 10 µM (%): 90.4
- Compound: "Cc1c(F)cccc1CN1CCCN(S(=O)(=O)c2ccc(-c3ccccc3)cc2)CC1"
  viability at 28.5 h, 10 µM (%): 95.9
- Compound: "O=C(CSC1c2ccccc2Oc2ccccc21)Nc1cccc(C(=O)O)c1"
  viability at 28.5 h, 10 µM (%): 97.9

stdin: Input `O=C(O)CN1CCN(c2ncnc3sc4c(c23)CCCC4)CC1` , output reported viability at 28.5 h, 10 µM.
stdout: 99.5

stdin: Input CC(NC(=O)N1CCCCC1CO)c1ccccc1 (centres unmarked) , output reported viability at 28.5 h, 10 µM.
stdout: 93.1

stdin: Input CC(C)(O)C#Cc1ccc(C(=O)N2CCCC2C(=O)O)s1 (centres unmarked) , output reported viability at 28.5 h, 10 µM.
stdout: 79.5

stdin: Input `O=C(Nc1cccnc1)c1ccnc(Cl)c1` , output reported viability at 28.5 h, 10 µM.
stdout: 100

stdin: Input `CN(CCCCCC(=O)/C=N/O)Cc1ccccc1` , output reported viability at 28.5 h, 10 µM.
stdout: 91.7

stdin: Input `COc1cc(-c2nc(N)cc3ccccc23)cc(OC)c1OC` , output reported viability at 28.5 h, 10 µM.
stdout: 102

The measurements presented in this section are drawn from paper PMC12040169.
